So I've got a bunch of binders here, and I need their Kd values.
Biological target: T1, DENV-2 nonstructural protein 1 (NS1), recombinant (Dengue virus 2, strain …, UniProt P29990)
T1 construct: also called DENV-2 NS1; NS1 from DENV-2; source: bought: Native Antigen Company (recombinant)
Test: SPR
Conditions: both partners purified
Give bare numbers, in nM.

Batch of 3 binders: report Kd for each.
1. sdAb DD1 (VHH, source: E. coli Turner (DE3), pET22b, periplasmic, purified (Ni-Sepharose, SEC)) VHH: EVQLQASGGGLVQAGGSLRVSCAATGIAFASYAVAWYRQAPGKQREWVATVGGLGGTKYVDSVKGRFTISRDNAKNAVTLQMNSLKPEDTAVYYCAAVEWDDGHYYWDTWGQGTRVTVSA
2. sdAb DD5 (VHH, source: E. coli Turner (DE3), pET22b, periplasmic, purified (Ni-Sepharose, SEC)) VHH: EVQLQASGGGLVQAGGSLRLSCAASGRAFSSETMGWFRQAPGKEREFVAAIWRIGGSTYNTDYADSVKGRFAISADRAKNTVDLQMNTLKPEDTAVYYCAGKMRGRSVNLYDYDYWGQGTQVTVSS
3. sdAb DD9 (VHH, source: E. coli Turner (DE3), pET22b, periplasmic, purified (Ni-Sepharose, SEC)) VHH: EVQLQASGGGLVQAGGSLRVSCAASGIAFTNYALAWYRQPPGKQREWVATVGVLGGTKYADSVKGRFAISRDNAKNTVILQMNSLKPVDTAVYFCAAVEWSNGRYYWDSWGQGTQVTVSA

Data returned:
1. 2.3
2. 0.9
3. 3.5
